# Assay Protocol: chemical genetic growth profiling, strain panel (AID 1159580);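 further: tested at 20 µM; growth read once vehicle control cultures reached saturation at 30 °C; 1 = growth at the plate median or of vehicle wells; lower values mean less growth of the strain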
# Details: S. cerevisiae deletion strains, growth OD, locus YNL322C, strain KRE1 (second series), stronger effect = lower value
About 2,000 (36%) of roughly 5,500 compounds were called active. Not shown: some 18% with an inconclusive outcome. Some of the results follow.
Parameter: normalized growth
In your answer, state the number alone without any accompanying words.

>>> value_reported("CC[C@]12CCCN3CCc4c(n(c5ccccc45)C(=O)C1)[C@@H]32")
0.979

Q: Could you please provide reported normalized growth for `COc1ccc(/C=C/C(=O)O)cc1OC` ? Thanks!
Result: 0.981

Q: State its normalized growth: O=C(O)CCCCC1SCC2NC(=O)NC21 (centres undefined)
Result: 0.973

Q: Please list normalized growth recorded for the compound CC(=O)O[C@H]1CC[C@@]2(C)C(=CCC3C2CC[C@]2(C)C(=O)CCC32)C1 (some centres undefined)
Result: 1.04

Q: Give normalized growth for the following compound: `NC(=O)N/N=C\c1ccc([N+](=O)[O-])o1`
Result: 0.997

Q: Output measured normalized growth for this item: `c1cc2c(cc1[C@H]1OC[C@H]3[C@@H]1CO[C@H]3c1ccc3c(c1)OCO3)OCO2`
Result: 0.907

Q: Give a short answer stating reported normalized growth for CC(=O)OCC(=O)[C@@]12OC(C)(C)O[C@@H]1CC1C3C[C@H](F)C4=CC(=O)C=C[C@]4(C)[C@@]3(F)[C@@H](O)C[C@@]12C (some centres undefined) .
Result: 1.04

Q: Query normalized growth for `CCn1cc(C(=O)O)c(=O)c2cnc(N3CCNCC3)nc21`
Result: 1.04

Q: Identify measured normalized growth corresponding to CC12CCC3C(CC=C4CC(O)CCC43C)C1CCC2=O (centres undefined)
Result: 1.01

----------
Below, each of the compounds is paired with its reported normalized growth value.
# Assay Protocol: chemical genetic growth profiling, strain panel (AID 1159580)
# Details: S. cerevisiae deletion strains, growth OD, locus YLR258W, strain gsy2, stronger effect = lower value
About 2,000 (36%) of roughly 5,500 compounds were called active. Another 18% or so got no clear call; they are omitted. The list shows a part of the results.
Reply with the value as a number alone.

>>> value_reported("Nc1nc2ncc(CNc3ccc(C(=O)N[C@@H](CCC(=O)O)C(=O)O)cc3)nc2c(=O)[nH]1")
0.998

Q: Give the measured normalized growth for `NC(=O)c1cnccn1`
Result: 1.01

Q: Determine from records and report normalized growth for `CCn1cc(C(=O)O)c(=O)c2cnc(N3CCNCC3)nc21`
Result: 1.04

Q: In one line, give reported normalized growth of the entry `CCCN(CCC)CCc1cccc2c1CC(=O)N2` .
Result: 0.979

Q: Complete the entry with normalized growth for Nc1nc(N)c2nc(CNc3ccc(C(=O)NC(CCC(=O)O)C(=O)O)cc3)cnc2n1 (stereo not drawn)
Result: 0.974

Q: Read off the recorded normalized growth for `CCn1cc(C(=O)O)c(=O)c2ccc(C)nc21`
Result: 0.939

Q: Complete the entry with normalized growth for COc1ccccc1OCC(O)CN1CCN(CC(=O)Nc2c(C)cccc2C)CC1 (stereo not drawn)
Result: 1.03

Q: Determine from records and report normalized growth for CC[C@@]1(C2O[C@@H](C3O[C@@](O)(CC)[C@H](C)C[C@@H]3C)C[C@@H]2C)CC[C@H]([C@]2(C)CCC3(C[C@H](O)[C@@H](C)[C@@H]([C@H](C)[C@@H](OC)[C@H](C)C(=O)O)O3)O2)O1 (stereo partly drawn)
Result: 1.03

----------
# Assay Protocol: chemical genetic growth profiling, strain panel (AID 1159580)
# Details: S. cerevisiae deletion strains, growth OD, locus YOR184W, strain ser1
Screen size: about 5,500 compounds; about 2,000 (36%) were called active. About 18% were inconclusive and are not listed. Cut-off read from the data, not from the text of the source: active = normalized growth mostly below about 0.91 (no sharp cut-off); inconclusive = no clear call, values can overlap the other calls; inactive = mostly above about 0.92. This is one part of the list.
# output must be one of active, inactive

>>> classification("CCn1cc(C(=O)O)c(=O)c2cnc(N3CCNCC3)nc21")
"inactive"

Q: I would be grateful if you could indicate the recorded call for COc1cc(C)c2c(c1C=O)Oc1c(c(C)c(O)c3c1C(O)OC3=O)OC2=O (centres undefined) .
Result: inactive

Q: In this assay, the call recorded for CCC(CCC(C)C1CCC2C3CC=C4C[C@@H](OC(C)=O)CC[C@]4(C)C3CC[C@]12C)C(C)C (some centres undefined) was what?
Result: inactive

Q: What was the test verdict on CC(=O)O[C@H]1CC[C@@]2(C)C(=CCC3C2CC[C@]2(C)C(=O)CCC32)C1 (some centres undefined) ?
Result: active

Q: // outcome(item) with item = COc1c(C2COc3cc4c(cc3C2=O)CC(O)C(C)(C)O4)ccc2c1CCC(C)(C)O2 (centres undefined)
Result: inactive

----------
# Assay Protocol: chemical genetic growth profiling, strain panel (AID 1159580);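 further: tested at 20 µM; growth read once vehicle control cultures reached saturation at 30 °C; 1 = growth at the plate median or of vehicle wells; lower values mean less growth of the strain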
# Details: S. cerevisiae deletion strains, growth OD, locus YBR023C, strain chs3
In all, about 5,500 compounds went through this assay and about 2,000 (36%) were called active. Not shown: some 18% with an inconclusive outcome. Rule as the data show it: active = normalized growth mostly below about 0.91 (no sharp cut-off); inconclusive = no clear call, values can overlap the other calls; inactive = mostly above about 0.92. The list shows a part of the results.
One label from this list, please: 1 (yes) (active), 0 (no) (inactive)

>>> classification("CC1(C)CC2C1CCC1(C)OC2(C)CCC1O (stereo not given)")
"0 (no)"
>>> classification("CCOc1ccc2c(c1)C(C)=CC(C)(C)N2")
"0 (no)"
>>> classification("S=c1[nH]c2ccccc2s1")
"0 (no)"
>>> classification("CC(=O)O[C@H]1CC[C@@]2(C)C(=CCC3C2CC[C@@]2(C)C3CC[C@@H]2C(C)CCCC(C)C)C1 (stereo not given in full)")
"0 (no)"
>>> classification("CCC(COC(=O)c1cc(OC)c(OC)c(OC)c1)(c1ccccc1)N(C)C (stereo not given)")
"0 (no)"

Q: Check the results log: what was the call for CC1(C)CC2C1CCC1(C)OC1CCC2(C)O (stereo not given) ?
Result: 0 (no)

Q: For this compound, state the assay outcome: CC(=O)O[C@H]1CC[C@@]2(C)C(=CCC3C2CC[C@]2(C)C(=O)CCC32)C1 (stereo not given in full)
Result: 0 (no)

----------
# Assay Protocol: chemical genetic growth profiling, strain panel (AID 1159580);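 further: tested at 20 µM; growth read once vehicle control cultures reached saturation at 30 °C; 1 = growth at the plate median or of vehicle wells; lower values mean less growth of the strain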
# Details: S. cerevisiae deletion strains, growth OD, locus YOR265W, strain rbl2
Out of some 5,500 compounds screened, about 2,000 (36%) were called active. About 18% were inconclusive and are not listed. Cut-off read from the data, not from the text of the source: active = normalized growth mostly below about 0.91 (no sharp cut-off); inconclusive = no clear call, values can overlap the other calls; inactive = mostly above about 0.92. Some of the results follow.
Thanks in advance; please answer with one of these: 1 for active, 0 for inactive

# example entries with known answers
>>> classification("COP(=S)(OC)Oc1ccc(SC)c(C)c1")
0
>>> classification("CCn1cc(C(=O)O)c(=O)c2cnc(N3CCNCC3)nc21")
0
>>> classification("CCN(CC)CCOC(=O)C(Cc1cccc2ccccc12)CC1CCCO1 (configuration not stated)")
0
>>> classification("NC(=O)c1ccc(N)nc1")
0
>>> classification("O=C(NC(Cc1cc(=O)[nH]c2ccccc12)C(=O)O)c1ccc(Cl)cc1 (configuration not stated)")
0

Q: For this molecule, state the assay outcome: `Nc1nc2ncc(CNc3ccc(C(=O)N[C@@H](CCC(=O)O)C(=O)O)cc3)nc2c(=O)[nH]1`
Result: 0

Q: Hi team, can someone confirm the assay call for `CCn1cc(C(=O)O)c(=O)c2cc3c(cc21)OCO3` ?
Result: 0

Q: GET /call?item= `NC(=O)c1cnccn1` returns the recorded outcome of this test.
Result: 0

Q: I'd appreciate the recorded outcome for `O=C(O)c1cc(O)c(O)c(O)c1` from this test.
Result: 0

Q: Which result was noted for this molecule in the test: `O=C(O)c1cc(=O)c(O)c2c(O)c(O)c(O)cc2c1`
Result: 1

Q: Please let me know the test result on file for Cc1cccc(CN2CCN(C(c3ccccc3)c3ccc(Cl)cc3)CC2)c1 (configuration not stated) .
Result: 1

Q: Please state the recorded outcome for this molecule: CCOC(=O)C(C)(N)Cc1ccc(O)c(O)c1 (configuration not stated)
Result: 0

Q: What outcome does the record of this test show for `O=C(O)CNCP(=O)(O)O` ?
Result: 0

----------
# Assay Protocol: chemical genetic growth profiling, strain panel (AID 1159580);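 further: tested at 20 µM; growth read once vehicle control cultures reached saturation at 30 °C; 1 = growth at the plate median or of vehicle wells; lower values mean less growth of the strain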
# Details: S. cerevisiae deletion strains, growth OD, locus YIL073C, strain SPO22, stronger effect = lower value
In all, about 5,500 compounds went through this assay and about 2,000 (36%) were called active. Roughly 18% stayed inconclusive and do not appear here. This is one part of the list.
Parameter: normalized growth
I only need the number, thanks.

Illustrative cases are given below, each with its answer.
>>> value_reported("CC1=CC(=O)CC(C)(C)C1(O)/C=C/C(C)=C\\C(=O)O (centres undefined)")
0.896
>>> value_reported("Nc1nc2ncc(CNc3ccc(C(=O)N[C@@H](CCC(=O)O)C(=O)O)cc3)nc2c(=O)[nH]1")
0.922
>>> value_reported("CCOP(=S)(OCC)SCSP(=S)(OCC)OCC")
0.907

Moving on to the next molecule.
Q: Report normalized growth for CC(C)C1=CC2=CCC3[C@](C)(CCC[C@]3(C)C(=O)O)C2CC1 (some centres undefined)
Result: 0.902
